- Tested on: V-C8 (BRCA2-deficient hamster cells)
- Experiment: normalised cell viability (fraction of plate median); higher = more viable cells (less toxic)
- Conditions: treatment time: 3 days; 5 µM
Where a name gives a salt, the structure may show the parent alone. Over roughly 1,300 compounds, “normalised cell viability” has its median near 1; the lowest 2% begin near 0.14. Shown is part of a subset that was picked to be rich in the lowest values.

{"Molecule": "NNc1nncc2ccccc12 [Hydralazine hydrochloride]", "normalised cell viability": 0.985}
{"Molecule": "N#CC(c1ccc(Cl)cc1)c1c(Cl)cc(-n2ncc(=O)[nH]c2=O)cc1Cl (centres undefined)", "normalised cell viability": 0.905}
{"Molecule": "C[C@H](O)C(=O)Nc1c(I)c(C(=O)NC(CO)CO)c(I)c(C(=O)NC(CO)CO)c1I", "normalised cell viability": 0.952}
{"Molecule": "OC[C@H]1O[C@@H](Oc2ccc(O)cc2)[C@H](O)[C@@H](O)[C@@H]1O", "normalised cell viability": 1.05}
{"Molecule": "CCCCC(CC)CNC(=N)NC(=N)NCCCCCCNC(=N)NC(=N)NCC(CC)CCCC (centres undefined) [Alexidine dihydrochloride]", "normalised cell viability": 0.124}
{"Molecule": "CN[C@@H]1[C@@H](O[C@H]2O[C@H](CO)[C@@H](N)[C@H](O)[C@H]2O)OC2C[C@@H](N)[C@@H](O[C@H]3[C@H](O)[C@@H](O)[C@H](N)C[C@@H]3N)OC2[C@@H]1O (some centres undefined)", "normalised cell viability": 0.995}
{"Molecule": "Cc1cc(/C=C/c2ccc3cc(N(C)C)ccc3[n+]2C)c(C)n1-c1ccccc1 [Pyrvinium pamoate]", "normalised cell viability": 0.132}
{"Molecule": "C#CCN[C@@H]1CCc2ccccc21", "normalised cell viability": 1.08}
{"Molecule": "CNCCC=C1c2ccccc2C=Cc2ccccc21", "normalised cell viability": 0.959}

====

- Tested on: V-C8 (BRCA2-deficient hamster cells)
- Experiment: normalised cell viability (fraction of plate median); higher = more viable cells (less toxic)
- Conditions: treatment time: 3 days; 5 µM
Where a name gives a salt, the structure may show the parent alone. The full ranking holds about 1,300 compounds; the median of “normalised cell viability” is about 1, and the lowest 2% start at about 0.14. Many of the other results were omitted from the sample, so the lowest values are more common in it than they were.

{"Molecule": "CN(CCCCCCCCCCN(C)C(=O)Oc1cccc([N+](C)(C)C)c1)C(=O)Oc1cccc([N+](C)(C)C)c1 [Demecarium bromide]", "Target": "V-C8 (BRCA2-deficient hamster cells)", "normalised cell viability": 0.828}
{"Molecule": "CC(C)NCC(O)COc1ccc(CCOCC2CC2)cc1 (stereo unspecified) [Betaxolol hydrochloride]", "Target": "V-C8 (BRCA2-deficient hamster cells)", "normalised cell viability": 0.158}
{"Molecule": "CCN(CC)CCOC(=O)C(c1ccccc1)C1CCCCC1 (stereo unspecified) [Drofenine hydrochloride]", "Target": "V-C8 (BRCA2-deficient hamster cells)", "normalised cell viability": 1.02}
{"Molecule": "COC(=O)N/N=C/c1c[n+]([O-])c2ccccc2[n+]1[O-]", "Target": "V-C8 (BRCA2-deficient hamster cells)", "normalised cell viability": 0.69}
{"Molecule": "CC1=C(C(=O)O)N2C(=O)[C@@H](NC(=O)[C@H](N)c3ccccc3)[C@H]2SC1 [Cephalexin monohydrate]", "Target": "V-C8 (BRCA2-deficient hamster cells)", "normalised cell viability": 1.25}
{"Molecule": "O=C(O)Cc1cc(I)c(Oc2ccc(O)c(I)c2)c(I)c1", "Target": "V-C8 (BRCA2-deficient hamster cells)", "normalised cell viability": 0.981}
{"Molecule": "CC(C)NCC(O)COc1ccc(COCCOC(C)C)cc1 (stereo unspecified) [Bisoprolol fumarate]", "Target": "V-C8 (BRCA2-deficient hamster cells)", "normalised cell viability": 1.04}
{"Molecule": "COc1ccccc1OCC(O)CN1CCN(CC(=O)Nc2c(C)cccc2C)CC1 (stereo unspecified)", "Target": "V-C8 (BRCA2-deficient hamster cells)", "normalised cell viability": 1.04}
{"Molecule": "CC(C)OC(=O)CCC/C=C\\C[C@@H]1[C@@H](CC[C@@H](O)CCc2ccccc2)[C@H](O)C[C@@H]1O", "Target": "V-C8 (BRCA2-deficient hamster cells)", "normalised cell viability": 1.13}
{"Molecule": "CCN(CC)CCOC(=O)C(Cc1cccc2ccccc12)CC1CCCO1 (stereo unspecified) [Nafronyl oxalate]", "Target": "V-C8 (BRCA2-deficient hamster cells)", "normalised cell viability": 0.161}
{"Molecule": "CC=CC(=O)N(CC)c1ccccc1C", "Target": "V-C8 (BRCA2-deficient hamster cells)", "normalised cell viability": 0.866}
{"Molecule": "CCC(Cc1c(I)cc(I)c(N)c1I)C(=O)O (stereo unspecified)", "Target": "V-C8 (BRCA2-deficient hamster cells)", "normalised cell viability": 0.999}
{"Molecule": "NC[C@@H]1O[C@@H](O[C@H]2[C@H](O)[C@@H](O[C@H]3O[C@H](CO)[C@@H](O)[C@H](N)[C@H]3O)[C@H](N)C[C@@H]2N)[C@@H](O)[C@H](O)[C@H]1O [Kanamycin A sulfate]", "Target": "V-C8 (BRCA2-deficient hamster cells)", "normalised cell viability": 0.965}
{"Molecule": "Clc1ccc(C(Cn2ccnc2)OCc2ccsc2Cl)c(Cl)c1 (stereo unspecified)", "Target": "V-C8 (BRCA2-deficient hamster cells)", "normalised cell viability": 0.97}
{"Molecule": "CC(=O)O[C@]1(C(C)=O)CC[C@H]2[C@@H]3C=C(Cl)C4=CC(=O)CC[C@]4(C)[C@H]3CC[C@@]21C [Chlormadinone acetate]", "Target": "V-C8 (BRCA2-deficient hamster cells)", "normalised cell viability": 0.998}
{"Molecule": "C#C[C@]1(O)CC[C@H]2[C@@H]3CCc4cc(OC)ccc4[C@H]3CC[C@@]21C", "Target": "V-C8 (BRCA2-deficient hamster cells)", "normalised cell viability": 0.844}
